Reference source: ChEMBL document CHEMBL5352410

Consider the following compounds; for each one, report its MIC80.
system: Candida albicans; assay: Antibiofilm activity against Candida albicans SC5314 assessed as sessile minimum inhibitory concentration measured after 24 hrs by XTT assay; format: functional
One number for each entry, in µg/mL.

Compound	MIC80 / µg/mL
Clc1ccc(C(Cn2ccnc2)[Se][Se]C(Cn2ccnc2)c2ccc(Cl)cc2Cl)c(Cl)c1 (configuration not stated)	32
Cc1ccc(C(Cn2ccnc2)[Se]C(Cn2ccnc2)c2ccc(C)cc2)cc1 (configuration not stated)	4
Cc1ccc(C(Cn2ccnc2)[Se][Se]C(Cn2ccnc2)c2ccc(C)cc2)cc1 (configuration not stated)	4
Fc1ccc(C(Cn2ccnc2)[Se]C(Cn2ccnc2)c2ccc(F)cc2F)c(F)c1 (configuration not stated)	4
Clc1ccc(C(Cn2ccnc2)[Se][Se]C(Cn2ccnc2)c2ccc(Cl)cc2)cc1 (configuration not stated)	16

Prompt: # input compound: Clc1ccc(C(Cn2ccnc2)[Se]C(Cn2ccnc2)c2ccc(Cl)cc2)cc1 (configuration not stated) ; wanted: its MIC80
Completion: 2
